Would you kindly list chromatographic logP for each of these compounds?
# methodSummary: Measurement of Log P values by HPLC on reversed phase columns (EEC directive 79/831 Annex V.A8)
# Type: physicochemical
# experimentalSetup: reversed phase HPLC column, method [a]: LC-UV, acidic range, 0.1% formic acid in water and acetonitrile as eluent
A bare number is all that is needed in reply.

# return recorded chromatographic logP for entry O=C(NCC(F)(F)c1ccc(Cl)cc1)c1c(Oc2cccc(C(F)F)c2)nnc2c1CCCC2 3.37

# return recorded chromatographic logP for entry O=C(NCC(F)(F)c1ccc(Br)cc1Cl)c1c(Oc2cccc(C(F)F)c2)nnc2c1CCCC2 3.84

# return recorded chromatographic logP for entry O=C(NCC(F)c1ccc(Cl)cc1Cl)c1c(Oc2cccc(Cl)c2)nnc2c1CCCC2 (centres unmarked) 3.89

# return recorded chromatographic logP for entry Cc1cc(Cl)ccc1C(F)(F)CNC(=O)c1c(Oc2cccc(C3CC3)c2F)nnc2c1CCCC2 4.34

# return recorded chromatographic logP for entry Cc1ccc(C(F)(F)CNC(=O)c2c(Oc3cccc(C(F)F)c3)nnc3c2CCCC3)c(C)c1 3.68

# return recorded chromatographic logP for entry Cc1cc(C)n(CCNC(=O)c2c(Oc3cccc(C(F)(F)F)c3)nnc3ccccc23)n1 2.78

# return recorded chromatographic logP for entry C=Cc1cccc(Oc2cnc3ccccc3c2C(=O)NCC(F)(F)c2ccc(C)cc2C)c1 4.4

# return recorded chromatographic logP for entry O=C(NCC(F)(F)c1ccc(Cl)cc1Cl)c1c(Oc2cccc(C(F)(F)F)c2)nnc2c1CCCC2 4.23

====

# methodSummary: Measurement of Log P values by HPLC on reversed phase columns (EEC directive 79/831 Annex V.A8)
# Type: physicochemical
# experimentalSetup: reversed phase HPLC column, method [a]: LC-UV, acidic range, 0.1% formic acid in water and acetonitrile as eluent
Would you kindly list chromatographic logP for each of these compounds?

# return recorded chromatographic logP for entry O=C(NC[C@H](F)c1ccc(Cl)cc1Cl)c1c(Oc2cccc(C(F)(F)F)c2)cnc2c1OCCO2 (racemic) 3.77

# return recorded chromatographic logP for entry C[C@H](NC(=O)c1c(Oc2cccc(C(F)(F)F)c2)nnc2ccccc12)c1ccc(Cl)s1 (racemic) 4.1

# return recorded chromatographic logP for entry O=C(NCC(F)(F)c1ccc(Br)cc1Cl)c1c(Oc2cccc(C(F)(F)F)c2)cnc2c1OCCO2 3.94

# return recorded chromatographic logP for entry Cc1ccc(C(F)CNC(=O)c2c(Oc3cccc(Cl)c3)nnc3c2CCCC3)c(C)c1 (centres unmarked) 3.73

# return recorded chromatographic logP for entry O=C(NCC(F)c1ccc(Cl)cc1Cl)c1c(Oc2cccc(C(F)(F)F)c2)nnc2c1CCCC2 (centres unmarked) 4.05

# return recorded chromatographic logP for entry Cc1cc(Br)ccc1C(F)(F)CNC(=O)c1c(Oc2cccc(Cl)c2F)nnc2c1CCCC2 4.44

# return recorded chromatographic logP for entry Cc1ccc(C(F)(F)CNC(=O)c2c(Oc3cccc(Cl)c3)nnc3c2CCCC3)c(Cl)c1 3.89

# return recorded chromatographic logP for entry Cc1ccc2c(C(=O)O)c(Oc3cccc(C(F)(F)F)c3)nnc2c1 2.74

====

# methodSummary: Measurement of Log P values by HPLC on reversed phase columns (EEC directive 79/831 Annex V.A8)
# Type: physicochemical
# experimentalSetup: reversed phase HPLC column, method [a]: LC-UV, acidic range, 0.1% formic acid in water and acetonitrile as eluent
Would you kindly list chromatographic logP for each of these compounds?
A bare number is all that is needed in reply.

# return recorded chromatographic logP for entry Cc1ccc2c(c1)[C@@H](NC(=O)c1c(Oc3cccc(C(F)(F)F)c3)nnc3ccccc13)CC(C)(C)O2 (racemic) 4.44

# return recorded chromatographic logP for entry O=C(NCC(F)c1ccc(Cl)cc1Cl)c1c(Oc2cccc(C3CC3)c2F)nnc2c1CCCC2 (centres unmarked) 4.17

# return recorded chromatographic logP for entry Cn1cc(-c2ccc(C(F)(F)CNC(=O)c3c(Oc4cccc(C(F)(F)F)c4)nnc4ccccc34)c(Cl)c2)cn1 3.71

# return recorded chromatographic logP for entry O=C(NOCc1ccc(C(F)(F)F)cc1)c1c(Oc2cccc(C(F)(F)F)c2)nnc2ccccc12 3.42

# return recorded chromatographic logP for entry O=C(NCCc1cnc(C(F)(F)F)nc1)c1c(Oc2cccc(C(F)(F)F)c2)nnc2ccccc12 3.22

# return recorded chromatographic logP for entry Cc1ccc2c(c1)CCC[C@@H]2NC(=O)c1c(Oc2cccc(C(F)(F)F)c2)nnc2ccccc12 (racemic) 4.47

# return recorded chromatographic logP for entry Cc1ccc2c(C(=O)NCC(F)(F)c3ccc(Br)cc3Cl)c(Oc3cccc(C(F)(F)F)c3)nnc2c1 4.64

# return recorded chromatographic logP for entry Cc1ccc(C(F)CNC(=O)c2c(Oc3cccc(C(F)(F)F)c3)nnc3c2CCC3)c(C)c1 (centres unmarked) 3.84

# return recorded chromatographic logP for entry O=C(O)c1c(Oc2cccc(C(F)(F)F)c2)nnc2c1COCC2 1.38

# return recorded chromatographic logP for entry Cc1ccc(C(F)(F)CNC(=O)c2c(Oc3cccc(Cl)c3)nnc3c2CCCC3)c(C)c1 3.89

# return recorded chromatographic logP for entry O=C(O)c1c(Oc2cccc(Br)c2F)nnc2ccccc12 2.43

# return recorded chromatographic logP for entry O=C(NCCc1cccs1)c1c(Oc2cccc(C(F)(F)F)c2)nnc2ccccc12 3.53

# return recorded chromatographic logP for entry O=C(NCC(F)(F)c1ccc(Br)cc1Cl)c1c(Oc2ccc(Cl)cc2)nnc2ccccc12 4.46

# return recorded chromatographic logP for entry Cc1ccc(C(F)CNC(=O)c2c(Oc3cccc(Cl)c3F)nnc3c2CCC3)c(C)c1 (centres unmarked) 3.73

# return recorded chromatographic logP for entry Cc1ccc(CCNC(=O)c2c(Oc3cccc(C(F)(F)F)c3)nnc3ccc(C)cc23)c(C)c1 4.47

# return recorded chromatographic logP for entry O=C(NCC(F)c1ccc(Cl)cc1Cl)c1c(Oc2cccc(C(F)(F)F)c2)nnc2c1COCC2 (centres unmarked) 3.75

# return recorded chromatographic logP for entry O=C(NCCOc1ccc(Cl)cc1)c1c(Oc2cccc(C(F)(F)F)c2)nnc2ccccc12 3.94
